Measured values drawn from PubChem BioAssay (EPA / NIEHS) for this set.

Biological target: Bile acid receptor (Homo sapiens) (UniProt Q96RI1)
Sequence (Q96RI1 whole entry, looked up): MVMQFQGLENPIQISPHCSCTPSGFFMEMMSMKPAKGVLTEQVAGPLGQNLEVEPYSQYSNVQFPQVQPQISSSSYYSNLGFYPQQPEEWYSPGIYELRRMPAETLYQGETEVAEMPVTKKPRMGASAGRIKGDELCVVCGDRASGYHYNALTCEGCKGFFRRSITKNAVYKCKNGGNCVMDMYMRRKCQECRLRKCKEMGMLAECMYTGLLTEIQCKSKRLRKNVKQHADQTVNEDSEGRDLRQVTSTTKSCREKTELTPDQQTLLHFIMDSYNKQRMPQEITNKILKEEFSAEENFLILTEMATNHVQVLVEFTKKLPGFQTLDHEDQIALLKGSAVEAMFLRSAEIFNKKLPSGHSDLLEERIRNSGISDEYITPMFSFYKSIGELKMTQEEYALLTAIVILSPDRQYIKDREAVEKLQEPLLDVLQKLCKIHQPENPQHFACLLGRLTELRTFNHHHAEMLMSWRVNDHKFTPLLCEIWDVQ
Assay: OT_FXR_FXRSRC1_1440: Odyssey Thera (OT) 24-hour HEK293T Protein-Complementation Assay for Farnesoid X receptor/SRC-1 Co-activator (AID 2283384)
Records with an inconclusive call do not appear. Active and inactive are the calls of the source. The calls were made as follows: active = hit-call score of the fitted dose curve at least 0.9, where 1 is the maximum; inconclusive = response in the unintended direction; inactive = score below 0.9.
Form entry, call: pick from active, inactive

Record excerpt, results attached:
[[record]]
compound = "Cc1c2ccccc2c(C)c2c1ccc1ccccc12"
classification = "inactive"

[[record]]
compound = "Cc1ccc2oc(CN(Cc3ccccc3)C(=O)Nc3c(F)cc(F)cc3F)c(-c3ccc(Cl)cc3)c2c1"
classification = "inactive"


In this assay, the call recorded for `CC(C)(C)c1cc(/C=C2\SC(N)=NC2=O)cc(C(C)(C)C)c1O` was what?
active

In this assay, the call recorded for `O=C=NCCCCCCN=C=O` was what?
inactive

In this assay, the call recorded for `O=CCCCC=O` was what?
inactive

In this assay, the call recorded for `O=C(O)c1ccccc1C(=O)OCc1ccccc1` was what?
inactive
